Tested on: E. coli K-12 UT580
Assay: Growth inhibition assay, filter discs on LB soft agar
Type: cell-based
Settings: area of clear zone around filter disc, over night at 37° C.
No end group written: not given here.
// values below are reported growth inhibition (area/μM)

# substance, growth inhibition (area/μM)
data = [
    ("SGRKSTRVHHWLLVL [compound 2]", 3.05),
    ("RLHYLF [compound 8, RLHYLF]", 0.90),
    ("RHITLF [compound 15, RHITLF]", 0.27),
    ("RHYLLF [compound 13, RHYLLF]", 0.83),
    ("RHWSIF [compound 11, RHWSIF]", 1.30),
    ("RIHFIPRRGR [compound 7]", 0.77),
    ("GLRGKTRVHYLVLG [peptide 1]", 3.65),
]
